pIC50: −log10 of the molar value.
Here's a batch of compounds along with measured pIC50 for RORc ligand binding domain (Homo sapiens, UniProt P51449).
Reported metric: pIC50

Some compounds with recorded pIC50:
[
  {
    "Compound": "CC1(C)[C@@H]2CC[C@@]1(C(=O)N1CC[C@@H](C#N)C1)c1nnc(-c3c(F)cccc3F)cc12 [Example 236]",
    "Experimental value": 6.39
  },
  {
    "Compound": "CC1(C)[C@H]2C=C[C@]1(C)c1nnc(-c3c(F)cccc3F)cc12 [Example 126]",
    "Experimental value": 6.47
  },
  {
    "Compound": "CC1(C)[C@H]2CC[C@]1(C)c1nnc(Oc3c(F)cccc3Cl)cc12 [Example 97]",
    "Experimental value": 7.06
  },
  {
    "Compound": "CCN(C[C@@]12CC[C@@H](c3cc(-c4c(F)cccc4F)nnc31)C2(C)C)C(C)=O [Example 157]",
    "Experimental value": 7.72
  }
]

A. CN(C)C(=O)C1CCN(C(=O)[C@]23CC[C@H](c4cc(-c5c(F)cccc5F)nnc42)C3(C)C)C1 (stereo partly shown) [Example 211]
B. Cc1c[nH]nc1C1CN(C(=O)[C@@]23CC[C@@H](c4cc(-c5ccccc5F)nnc42)C3(C)C)C1 [Example 179]
C. COCC[C@]12CC[C@H](c3cc(-c4ccccc4F)nnc31)C2(C)C [Example 41]
Ask | Returns the items ordered by pIC50, from maximum to minimum. Arrange the labels as the request states and list them.
Reply | C, A, B
(C: 7.27, A: 6.14, B: 5.55)
